Values compiled from patent US20140135357A1.

Test: clinical
Details: human, in vivo, 13.5 mg/m2
Recorded Cmax values for a group of compounds are listed next.
Respond with the figure and its unit, in that order.

Here is how some compounds turned out for Cmax.
compound | Cmax
CC[C@@]1(O)C(=O)OCc2c1cc1n(c2=O)Cc2cc3c(CN(C)C)c(O)ccc3nc2-1 [Topotecan, reference compound] | 8.71 ng/mL
CC[C@@]1(OC(=O)[C@H](C)O)C(=O)OCc2c1cc1n(c2=O)Cc2cc3c(CN(C)C)c(O)ccc3nc2-1 [TLC-U2, S,S-topotecan lactate] | 18.1 ng/mL

Kindly review the next compound as well.
Need Cmax, item CC[C@@]1(OC(=O)[C@@H](C)O)C(=O)OCc2c1cc1n(c2=O)Cc2cc3c(CN(C)C)c(O)ccc3nc2-1 [TLC-U1, S,R-topotecan lactate]
56.3 ng/mL
